Data provenance: PubChem BioAssay

assay: viability loss with induced miR-34 in A549 – imaging, A549 dox-inducible miR-34, nuclei and caspase counts, primary screen (AID 1347080); settings: A549 miR-34 inducible, Hoechst nuclei count, 48 h; measured here: total cells with miR-34 induction; stronger effect = lower value; further: test concentration not given here
PARAMETER MEASURED: cell count

COc1cc(Cn2cnc3nccnc3c2=O)cc(OC)c1 | 9000
CC1(C)CC(=O)c2c(N)ncnc2C1 | 9160
CC(CNC(=O)c1cccnc1)NC(=O)c1cccnc1 (configuration not stated) | 9140
COc1ccccc1-c1ccc(C(=O)O)o1 | 8930
O=C(O)c1cnc(-c2ccccc2)[nH]1 | 8980
Fc1ccc(CN(C2=NCCN2)c2c(Cl)cccc2Cl)cc1 | 8870
O=C(O)C(O)C(O)C(O)C(O)C(=O)O (configuration not stated) (tested in a mixture with another compound) | 8860
